Reference source: patent US20260274955A1

Listing: Anti-CD28 Fab signal of selected binders
system: Anti-CD28 Fab (SEQ ID NOs: 202, 203)
Sequence (VH, as listed by the source, chain 1 of 2): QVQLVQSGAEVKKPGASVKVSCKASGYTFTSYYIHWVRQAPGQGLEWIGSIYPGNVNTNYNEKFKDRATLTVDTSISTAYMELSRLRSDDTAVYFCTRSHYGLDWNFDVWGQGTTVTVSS
Sequence (VL, as listed by the source, chain 2 of 2): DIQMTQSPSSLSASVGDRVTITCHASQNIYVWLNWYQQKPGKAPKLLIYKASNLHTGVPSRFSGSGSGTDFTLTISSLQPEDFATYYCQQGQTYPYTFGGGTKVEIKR
method-summary: phage binding ELISA on captured Fab;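 further: clonal phage supernatants added briefly to wells pre-incubated with CD28 antigen or with blocking buffer only, then washed, bound phage read by ELISA using HRP-coupled anti-M13 antibody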

binder: YWYCSPSIVRCVLV [Phage-15]
Anti-CD28 Fab signal: 1.51
--
binder: YCEGHLPQYMKKCL [Phage-144]
Anti-CD28 Fab signal: 2.22
--
binder: YCQGHLPMYMEKCL [Phage-80]
Anti-CD28 Fab signal: 2.34
--
binder: YCEGHSPEYMSKCL [Phage-89]
Anti-CD28 Fab signal: 2.31
--
binder: YCEGHEGIYFWKCL [Phage-27]
Anti-CD28 Fab signal: 2.07
--
binder: YCEGHLPQYMQKCL [Phage-60]
Anti-CD28 Fab signal: 2.39
--
binder: YCDGHLPMYMMKCL [Phage-109]
Anti-CD28 Fab signal: 2.28
--
binder: YCAGHTEEHYVKCM [Phage-22]
Anti-CD28 Fab signal: 0.62
--
binder: YCEGHAWEYMAKCL [Phage-129]
Anti-CD28 Fab signal: 2.24
--
binder: YCDGHSMEYMSKCL [Phage-139]
Anti-CD28 Fab signal: 2.22
--
binder: ACDTYFAGMINECF [Phage-5]
Anti-CD28 Fab signal: 0.92
--
binder: YCAGHLPEYMDKCL [Phage-53]
Anti-CD28 Fab signal: 2.42
--
binder: YCEGHSPEYMAKCL [Phage-74]
Anti-CD28 Fab signal: 2.35
--
binder: YCEGHSPEYMYKCL [Phage-138]
Anti-CD28 Fab signal: 2.23
--
binder: YCEGHSAQYMSKCL [Phage-105]
Anti-CD28 Fab signal: 2.29
--
binder: YCEGHLPEYMAKCL [Phage-57]
Anti-CD28 Fab signal: 2.41
--
binder: YCEGHAPEYIWKCL [Phage-31]
Anti-CD28 Fab signal: 1.63
--
binder: YCEGHLPLYMWKCL [Phage-96]
Anti-CD28 Fab signal: 2.3
--
binder: YCEGHSWANLGKCL [Phage-85]
Anti-CD28 Fab signal: 2.32
--
binder: YCDGHLPQYMNKCL [Phage-134]
Anti-CD28 Fab signal: 2.23
--
binder: YCEGHLPEYREKCL [Phage-34]
Anti-CD28 Fab signal: 1.96
--
binder: YCQGHLPEYMNKCL [Phage-130]
Anti-CD28 Fab signal: 2.24
--
binder: YCDGHLPIYMSKCL [Phage-84]
Anti-CD28 Fab signal: 2.32
--
binder: YCDGHLPEYMAKCL [Phage-69]
Anti-CD28 Fab signal: 2.37
--
binder: YCDGHLPIYMSQCL [Phage-73]
Anti-CD28 Fab signal: 2.36
--
binder: HCSGHHWLQVWKCF [Phage-38]
Anti-CD28 Fab signal: 2.31
--
binder: YCEGHLPQYMAKCL [Phage-81]
Anti-CD28 Fab signal: 2.34
--
binder: YCEGHSEEYISKCL [Phage-99]
Anti-CD28 Fab signal: 2.3
--
binder: YCAGHLPEYMPHCI [Phage-91]
Anti-CD28 Fab signal: 2.31
--
binder: YCEGHLPEYMLKCL [Phage-87]
Anti-CD28 Fab signal: 2.32
--
binder: YCSGHLPQYMQKCL [Phage-112]
Anti-CD28 Fab signal: 2.28
